System: JJN-3 cells
Test details: Biological Assay C: antiproliferative activity on JJN-3 cells (CellTiter-Glo)
Assay type: cell-based
Settings: Homo sapiens, 72 hr treatment
Procedure: Determination of Antiproliferative Activity on LP-1, L-363 and JJN-3 Cells All compounds tested were dissolved in DMSO and further dilutions were made in culture medium. Final DMSO concentration was 0.3% (v/v) in cell proliferation assays. Viability was assessed using CellTiter-Glo cell viability assay kit (Promega). […] Luminescence was measured on a HTS Topcount (Perkin Elmer). […]
EC50 vs 800 nM: less than gives 1; not less than gives -1.

Please state whether EC50 is below 800 nM for CNC(=O)c1cn(-c2ccnc(N)n2)c2cc(C#CC(C)(C)O)ncc12 [Compound 15] -1

Please state whether EC50 is below 800 nM for CC(C)(O)C#Cc1cc2c(ccn2-c2ccnc(N)n2)cn1 [Compound 3] 1

Please state whether EC50 is below 800 nM for COCCCc1cn(-c2nc(N)ncc2F)c2cc(C#CC(C)(C)O)ncc12 [Compound 39] 1

Please state whether EC50 is below 800 nM for CC(C)(O)CCc1cn(-c2nc(N)ncc2F)c2cc(C#CC3(O)CCCC3)ncc12 [Compound 34] -1

Please state whether EC50 is below 800 nM for N#CCCc1cn(-c2ccnc(N)n2)c2cc(C#CC3(O)CCCC3)ncc12 [Compound 37] -1

Please state whether EC50 is below 800 nM for CC(C)(O)CCc1cn(-c2ccnc(N)n2)c2cc(C#CC3(O)CCCC3)ncc12 [Compound 32] 1

Please state whether EC50 is below 800 nM for CC(O)(C#Cc1cc2c(cn1)c(C1CCN(CCC(F)(F)F)CC1)cn2-c1ccnc(N)n1)C1CC1 (centres unmarked) [Compound 43] 1

Please state whether EC50 is below 800 nM for CC(O)(C#Cc1cc2c(cn1)c(C1CCCN(CCC(F)(F)F)C1)cn2-c1nc(N)ncc1F)C1CC1 (centres unmarked) [Compound 48] -1

Please state whether EC50 is below 800 nM for CN1CCC(c2cn(-c3ccnc(N)n3)c3cc(C#CC(C)(C)O)ncc23)CC1 [Compound 23] 1

Please state whether EC50 is below 800 nM for CC(C)(O)C#Cc1cc2c(cn1)c(CCC#N)cn2-c1ccnc(N)n1 [Compound 36] 1

Please state whether EC50 is below 800 nM for [2H]C([2H])([2H])N1CCC(c2cn(-c3ccnc(N)n3)c3cc(C#CC(O)(C([2H])([2H])[2H])C([2H])([2H])[2H])ncc23)CC1 [Compound 53] 1

Please state whether EC50 is below 800 nM for Nc1ncc(F)c(-n2cc(CCCO)c3cnc(C#CC4(O)CCCC4)cc32)n1 [Compound 30] -1

Please state whether EC50 is below 800 nM for Cc1cnc(N)nc1-n1ccc2cnc(C#CC(C)(C)O)cc21 [Compound 11] -1

Please state whether EC50 is below 800 nM for Nc1ncc(F)c(-n2ccc3cnc(C#CC4(O)CCCC4)cc32)n1 [Compound 13] -1

Please state whether EC50 is below 800 nM for CC(O)(C#Cc1cc2c(cn1)c(C1CCN(C3CC3)CC1)cn2-c1ccnc(N)n1)C1CC1 (centres unmarked) [Compound 44] 1

Please state whether EC50 is below 800 nM for CC(C)(O)C#Cc1cc2c(cn1)c(C(N)=O)cn2-c1ccnc(N)n1 [Compound 14] -1
